- Measurement notes: Urine metabolites after oral Gegen water extract, quantified by UPLC-MS/MS
- Type: in vivo, spontaneously hypertensive rats (SHRs)
- Test conditions: spontaneously hypertensive rat (SHR), in vivo, 4 h after last dose of Gegen water extract 300 mg/kg p.o., 3-week treatment, Mean ± SEM, n = 8, read-out: Content in urine, 4 h
Recorded metric: concentration at 4 h (ng/mL)

# Compound, Recorded result
data = [
    ("O=c1c(-c2ccc(O)cc2)coc2cc(O)cc(O)c12 [Genistein, Genistein (5-hydroxyl daidzein)]", 1410),
]

* * *

- Measurement notes: Urine metabolites after oral Gegen water extract, quantified by UPLC-MS/MS
- Format: in vivo, spontaneously hypertensive rats (SHRs)
- Test conditions: spontaneously hypertensive rat (SHR), in vivo, 8 h after last dose of Gegen water extract 300 mg/kg p.o., 3-week treatment, Mean ± SEM, n = 8, read-out: Content in urine, 8 h

# Compound, concentration at 8 h
data = [
    ("O=c1c(-c2ccc(O)cc2)coc2cc(O)cc(O)c12 [Genistein, Genistein (5-hydroxyl daidzein)]", "342 ng/mL"),
]
